Values from the supplement of paper PMC4466140

target.of.assay: ScNbp2
assay.summary: SPOT peptide array binding signal intensity (averaged, normalized) (arbitrary units (background-subtracted, floor 0; scale differs between SH3 domains)); higher = stronger binding of the SH3 domain to the peptide
measurement.kind: SPOT peptide array binding signal intensity

>>> value_observed("QPWTDQFEKLEKEVS")
"≤ 0"
>>> value_observed("LSKRLPLRFPEHTSS")
50
>>> value_observed("LPPPPPPPPPPPLPQ")
16
>>> value_observed("KRNRLKILLPFLEQS")
130
